Provide the recorded activation at 0.11 µM for the entries that follow.
system: hiPSC-derived neurons co-cultured with human primary astrocytes in 2D; experiment: Ca2+ transient oscillation assay (FDSS), 2D co-culture; type: cell-based; settings: Homo sapiens, 1 h; 0.11 µM; 60 min; read-out: Peak amplitude - 2D Mean
Give bare numbers, in %.

Below, each entry is followed by its recorded activation at 0.11 µM result.
Compound	activation at 0.11 µM / %
NCCCC(=O)O [GABA, gamma-aminobutyric acid]	9.1
Clc1ccc2c(c1)C(N1CCNCC1)=Nc1ccccc1O2 [Amoxapine]	7.7
CC1(C)S[C@@H]2[C@H](NC(=O)[C@H](N)c3ccc(O)cc3)C(=O)N2[C@H]1C(=O)O [Amoxicillin]	19.3

// for each compound below, give its activation at 0.11 µM
1. CN(C)CCCN1c2ccccc2Sc2ccc(Cl)cc21 [Chlorpromazine]
2. CN1CCN(C2=Nc3cc(Cl)ccc3Nc3ccccc32)CC1 [Clozapine]
3. C[C@]12N[C@H](Cc3ccccc31)c1ccccc12 [MK-801, Dizocilpine]

8.7
16.7
-41.8
